Provide the reported pIC50 of each item.
molecular target: RGS4 stimulation of Gαi1 (R178M/A326S) GTP hydrolysis (Rattus norvegicus); assay: Receptor-independent steady-state GTPase acceleration protein assay; conditions: read-out: SS-GAP IC50; 200 nM Δ51 RGS4-MBP, 6 μM Gαi1 (R178M/A326S), 300 μM GTP
Scale note: pIC50 = -log10(concentration in M).

Returns the measured pIC50 for the input compound. Input: O=C1NC(=S)N(c2ccccc2F)C(=O)/C1=C\c1cccs1 4.45

For COc1ccc(NC(=O)/C(Cl)=C(/Cl)[S+]([O-])Cc2ccccc2)cn1 (centres unmarked) then? 5.80

Try this compound too: O=C1N=c2ccccc2=C1c1c(O)n(-c2cccc(F)c2)[nH]c1=O 4.25

Thanks! And CN1C(=O)/C(=C\c2ccc(Br)s2)C(=O)NC1=S ? 5.03

Thanks! And Cc1ccc(/C=C2\C(=O)NC(=S)N(c3ccc(F)cc3)C2=O)s1 ? 4.96

====

Provide the recorded IC50 for the entries that follow.
test system: RGS4 in HEK293-FlpIn-TREx/M3R/RGS4 cells; experiment: Cell-based calcium signaling assay in M3-R4 cells; parameters: species or system human; conditions: read-out: Cellular Activity IC50, Dox treated, carbachol-stimulated calcium
Form entry: value (µM) — number only.

Field request: IC50 | item: O=C1N=c2ccccc2=C1c1c(O)n(-c2cccc(F)c2)[nH]c1=O [CID 5428579] 35.5

And the next one, CN1C(=O)/C(=C\c2ccc(Br)s2)C(=O)NC1=S [CID 1777233] ? 20

How about O=C1NC(=S)N(c2ccccc2F)C(=O)/C1=C\c1cccs1 [CID 1905297] ? 23.8

Same for Cc1ccc(/C=C2\C(=O)NC(=S)N(c3ccc(F)cc3)C2=O)s1 [CID 1389577] 15

====

target: UniProtKB P49799; assay: FCPIA reversibility; conditions: 100 μM compound, FCPIA
PARAMETER: inhibition of RGS4-G-protein binding

[
  {
    "STRUCTURE_SMILES_STRING": "Cc1ccc(/C=C2\\C(=O)NC(=S)N(c3ccc(F)cc3)C2=O)s1",
    "PARAMETER": "inhibition of RGS4-G-protein binding",
    "MEASURED": "greater than 85%"
  },
  {
    "STRUCTURE_SMILES_STRING": "CN1C(=O)/C(=C\\c2ccc(Br)s2)C(=O)NC1=S",
    "PARAMETER": "inhibition of RGS4-G-protein binding",
    "MEASURED": "greater than 85%"
  },
  {
    "STRUCTURE_SMILES_STRING": "O=C1N=c2ccccc2=C1c1c(O)n(-c2cccc(F)c2)[nH]c1=O",
    "PARAMETER": "inhibition of RGS4-G-protein binding",
    "MEASURED": "greater than 85%"
  },
  {
    "STRUCTURE_SMILES_STRING": "O=C1NC(=S)N(c2ccccc2F)C(=O)/C1=C\\c1cccs1",
    "PARAMETER": "inhibition of RGS4-G-protein binding",
    "MEASURED": "greater than 85%"
  }
]

====

Biological target: RGS4-Gαo binding (Rattus norvegicus)
Sequence (P49799 52-205 limits assumed): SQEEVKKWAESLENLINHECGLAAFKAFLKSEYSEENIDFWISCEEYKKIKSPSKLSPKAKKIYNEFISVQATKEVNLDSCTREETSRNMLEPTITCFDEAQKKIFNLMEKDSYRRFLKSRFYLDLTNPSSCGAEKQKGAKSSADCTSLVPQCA
Assay: Flow Cytometry Protein Interaction Assay
Settings: read-out: FCPIA IC50, compounds 100 nM-100 μM, three independent experiments
PARAMETER: pIC50
Entry type: numeric. Quantity: pIC50, the -log10 of concentration in molar units.

# pIC50 lookup, item Cc1ccc(/C=C2\C(=O)NC(=S)N(c3ccc(F)cc3)C2=O)s1 4.74

Okay, and O=C1N=c2ccccc2=C1c1c(O)n(-c2cccc(F)c2)[nH]c1=O ? 5.09

Likewise for COc1ccc(NC(=O)/C(Cl)=C(/Cl)[S+]([O-])Cc2ccccc2)cn1 (centres unmarked) ? 5.77

// next record CN1C(=O)/C(=C\c2ccc(Br)s2)C(=O)NC1=S 4.82

Please do the same for O=C1NC(=S)N(c2ccccc2F)C(=O)/C1=C\c1cccs1 as well. 4.55
